Source: PubChem BioAssay AID330

System: P388 leukemia ip, CD2F1 mice, survival T/C
assay.text: NCI In Vivo Anticancer Drug Screen. Data for tumor model P388 Leukemia (intraperitoneal) in CD2F1 (CDF1) mice
run.parameters: endpoint: median survival time; dose: 100.0 mg/kg/injection; schedule: Q01DX009 (ip); vehicle: Klucel (hydroxypropylcellulose) (HPC); higher = longer survival
Inconclusive results and toxic doses are left out.
assay.endpoint: T/C

| compound | T/C |
| --- | --- |
| CCCCC(=O)C(=O)c1ccc(O)cc1O | 114 % of control |
| N#CC1C(=O)NC(=O)C(C#N)C1c1c2ccccc2cc2ccccc12 (configuration not stated) | 100 % of control |
| CC1CC(C)NC(N=S(=O)(O)c2ccc(N)cc2)[N-]1.[Ag+] (configuration not stated) | 100 % of control |
| c1ccc(-c2nc3ccccc3[nH]2)nc1 | 115 % of control |

Here's the next entry for you.
query: Requested field: T/C. Item: `O=[N+]([O-])c1ccc(Cl)nc1Sc1ncccn1`
result: 95 % of control

----------
Test system: P388 leukemia ip, CD2F1 mice, survival T/C
assay.text: NCI In Vivo Anticancer Drug Screen. Data for tumor model P388 Leukemia (intraperitoneal) in CD2F1 (CDF1) mice
run.parameters: endpoint: median survival time; dose: 200.0 mg/kg/injection; schedule: Q01DX009 (ip); vehicle: Klucel (hydroxypropylcellulose) (HPC); higher = longer survival
Procedure: The antitumor activity of compounds was measured in mice bearing transplantable tumors. Survival or tumor size were measured and the results are expressed as the measurement made in the treated group (T) divided by the measurement made in the vehicle treated control group (C). The tumor model used in this assay is P388 Leukemia (intraperitoneal) in CD2F1 (CDF1) mice
Toxic doses and inconclusive results are not listed.
assay.endpoint: T/C

query: Suppose we examine the molecule `O=C(Nc1ccc(Nc2ccncc2)cc1)c1ccc([N+](=O)[O-])cc1` ; what T/C value has been reported?
result: 100 % of control

----------
System: P388 leukemia ip, CD2F1 mice, survival T/C
assay.text: NCI In Vivo Anticancer Drug Screen. Data for tumor model P388 Leukemia (intraperitoneal) in CD2F1 (CDF1) mice
run.parameters: endpoint: median survival time; dose: 200.0 mg/kg/injection; schedule: Q04DX003 (ip); vehicle: saline; higher = longer survival
Toxic doses and inconclusive results are not listed.
assay.endpoint: T/C

Use these answered entries as a reference point.
| given.smiles | T/C |
| --- | --- |
| CN1C(=C2C=CC(=NS(=O)(=O)c3ccc(Cl)cc3)C=C2)Sc2ccccc21 | 106 % of control |
| C=C(c1ccccc1)c1ccccc1-c1ccccc1C(=C)c1ccccc1 | 100 % of control |
| CC(=O)/C=C1\C(=O)OCC1(C)C | 108 % of control |
| CC(C)(C)NC(=O)C(F)(F)C(F)(F)C(F)(F)C(=O)NC(C)(C)C | 100 % of control |
| COC(=O)C1(N)CCCC1 | 113 % of control |

query: I would be grateful if you could share the reported T/C for `Clc1ccc(-c2cc3cc4c(cc3[nH]2)Sc2ccccc2O4)cc1` .
result: 86 % of control

----------
Tested on: P388 leukemia ip, CD2F1 mice, survival T/C
assay.text: NCI In Vivo Anticancer Drug Screen. Data for tumor model P388 Leukemia (intraperitoneal) in CD2F1 (CDF1) mice
run.parameters: endpoint: median survival time; dose: 25.0 mg/kg/injection; schedule: Q04DX003 (ip); vehicle: Klucel (hydroxypropylcellulose) (HPC); higher = longer survival
Toxic doses and inconclusive results are not listed.
Reported T/C values are given for each entry in this list.

Examples from the recorded data:
| given.smiles | system.under.test | T/C |
| --- | --- | --- |
| Cc1cc(N=NC(N)=S)c2ccccc2c1O | P388 leukemia ip, CD2F1 mice, survival T/C | 100 % of control |
| NC(=S)c1cccc(C=Nc2ccccc2)n1 | P388 leukemia ip, CD2F1 mice, survival T/C | 105 % of control |
| c1ccc(-c2nc3ccccc3[nH]2)nc1 | P388 leukemia ip, CD2F1 mice, survival T/C | 101 % of control |

Let us move to another entry and its T/C.
query: Which T/C reading was recorded for the molecule `CCSC1=C(SCC)C1SCC` ?
result: 107 % of control
